- target desc: T1, human PAI-1 captured on immobilized human vitronectin (human, UniProt P04004 20-478)
- T1 construct: non-covalent complex formed on the chip or plate; also called PAI-1/Vn complex; Vn captured hPAI-1
- T1 sequence (chain, as listed by the source limits assumed, chain 1 of 2): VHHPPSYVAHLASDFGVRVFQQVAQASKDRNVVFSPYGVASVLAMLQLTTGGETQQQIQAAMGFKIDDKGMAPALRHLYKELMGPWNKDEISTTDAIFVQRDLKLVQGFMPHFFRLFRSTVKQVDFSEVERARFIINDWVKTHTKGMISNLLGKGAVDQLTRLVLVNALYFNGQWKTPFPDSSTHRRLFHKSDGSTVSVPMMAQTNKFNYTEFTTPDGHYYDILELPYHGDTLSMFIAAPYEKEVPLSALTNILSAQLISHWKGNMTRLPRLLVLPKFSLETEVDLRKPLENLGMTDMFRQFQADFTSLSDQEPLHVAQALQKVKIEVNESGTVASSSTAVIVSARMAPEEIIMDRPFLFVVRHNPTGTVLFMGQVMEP
- T1 sequence (P04004 20-478 limits assumed, chain 2 of 2): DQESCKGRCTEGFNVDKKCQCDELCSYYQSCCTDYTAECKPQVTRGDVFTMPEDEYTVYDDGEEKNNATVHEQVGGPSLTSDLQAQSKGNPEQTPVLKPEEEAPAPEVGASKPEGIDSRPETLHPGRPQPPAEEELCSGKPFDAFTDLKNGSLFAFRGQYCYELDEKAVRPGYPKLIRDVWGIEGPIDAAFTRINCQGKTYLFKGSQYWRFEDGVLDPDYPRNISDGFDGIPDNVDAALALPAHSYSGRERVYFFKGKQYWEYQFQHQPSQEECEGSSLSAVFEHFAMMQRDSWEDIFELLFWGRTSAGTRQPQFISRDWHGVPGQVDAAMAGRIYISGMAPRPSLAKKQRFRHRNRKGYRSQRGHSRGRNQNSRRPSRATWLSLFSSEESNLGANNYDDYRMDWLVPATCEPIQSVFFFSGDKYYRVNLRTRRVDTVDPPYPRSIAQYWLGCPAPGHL
- test: Biacore, hPAI-1 on vitronectin chip, 1:1 model
measure name: Kd (nM)

INSERT INTO results (binder, measure_name, experimental_value) VALUES
  ('A44-hv1 (antibody, V domains shown, humanized A44, HEK293; also called LC1a x HC1a; variant 1) VH: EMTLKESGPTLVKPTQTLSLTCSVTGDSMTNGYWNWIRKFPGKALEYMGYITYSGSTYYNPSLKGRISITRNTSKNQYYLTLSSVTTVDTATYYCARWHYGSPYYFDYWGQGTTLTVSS VL: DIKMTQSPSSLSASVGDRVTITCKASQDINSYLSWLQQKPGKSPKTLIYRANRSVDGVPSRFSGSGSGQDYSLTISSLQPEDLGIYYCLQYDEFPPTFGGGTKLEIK', 'Kd', 0.0526);
